Target: T1, human IL-36α(R12), truncated (human, UniProt Q9UHA7 6-158)
T1 construct: Untagged after removal of the His-SUMO tag; also called hIL-36alpha
T1 chain: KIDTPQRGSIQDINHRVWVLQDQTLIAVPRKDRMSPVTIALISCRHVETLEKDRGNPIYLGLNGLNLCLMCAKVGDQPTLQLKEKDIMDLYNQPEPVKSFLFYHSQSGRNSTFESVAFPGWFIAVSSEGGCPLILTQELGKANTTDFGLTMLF
Test: SPR, Biacore, 1:1 Langmuir fit; heads of c3 and c4 printed swapped
Quick reference for kon among some binders
Use M⁻¹ s⁻¹ as the unit, but write only the number.

Recorded results for 3 binders are shown here.
Query: kon; subject: 144D464A (antibody, V domains shown, Mouse monoclonal from hybridoma; mouse IgG heavy and lambda light chain; also called mouse antibody 144D464A) VH: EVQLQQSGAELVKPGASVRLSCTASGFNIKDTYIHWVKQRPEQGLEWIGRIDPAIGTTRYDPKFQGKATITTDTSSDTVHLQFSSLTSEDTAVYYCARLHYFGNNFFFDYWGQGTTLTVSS VL: QAVVTQESALTTSPGEAVTLTCRSSSGAVTTSNYANWVQEKPDHLFAGLIGGTNDRAPGVPARFSGSLIGDKAALTITGAQTEDEAIYFCALWFSNHWVFGGGTKLTVL
274000

Entry 144L249B LV7a HV11 (antibody, V domains shown, Humanized) VH: QVQLVQSGAEVKKPGASVKVSCKASGFNIKDTYIYWVRQAPGQGLEWIGRIDPAIGTTRYDPKFQGKATLTTDTSTNTAYLELSSLRSEDTAVYYCARYDYSGSSFYFDYWGQGTLVTVSS VL: QAVVTQEPSLTVSPGGTVTLTCRSSTGAVTTSNYANWVQQKPGQAFTGLIGGTNDRAPGVPARFSGSLLGGKAALTISGAQPEDEADYFCALWYSNHLVFGGGTKLTVL : reported kon = ?
749000

Which kon value is on record for 144L249B LV9 HV11 (antibody, V domains shown, Humanized) VH: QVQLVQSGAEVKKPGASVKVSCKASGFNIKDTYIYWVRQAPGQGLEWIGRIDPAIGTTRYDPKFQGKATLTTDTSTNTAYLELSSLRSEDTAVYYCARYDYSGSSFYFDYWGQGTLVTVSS VL: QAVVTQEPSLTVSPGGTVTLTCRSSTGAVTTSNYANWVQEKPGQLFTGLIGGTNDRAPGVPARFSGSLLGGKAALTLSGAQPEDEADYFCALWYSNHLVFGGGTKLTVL ?
791000

// below: kon requested for another binder
Param item = 144D464A LV7a HV10b (antibody, V domains shown, Humanized; also called humanized 144D464A antibody LV7a HV10b) VH: QVQLVQSGAEVKKPGASVKVSCKASGFNIKDTYIHWVRQAPGQGLEWIGRIDPAIGTTRYDPKFQGRATITTDTSTSTVYLEFSSLRSEDTAVYYCARLHYFGNNFFFDYWGQGTLVTVSS VL: QAVVTQEPSLTVSPGGTVTLTCRSSSGAVTTSNYANWVQQKPGQAFAGLIGGTNDRAPGVPARFSGSLLGGKAALTISGAQPEDEADYFCALWFSNHWVFGGGTKLTVL ; retrieve measured kon.
219000
